- EXPERIMENT_SUMMARY: Photophysical properties (fluorescence spectroscopy, quantum yield)
- Type: physicochemical
- STATED_CONDITIONS: CHCl3

{"COMPOUND": "CCCCN1/C(=C/C=C2\\CCCC(/C=C/C3=[N+](CCCC)c4ccc5ccccc5c4C3(C)C)=C2Cl)C(C)(C)c2c1ccc1ccccc21 [IC7-1-Bu]", "Φ, quantum yield": 0.06}
{"COMPOUND": "CCCCCCN1/C(=C/C=C2\\CCCC(/C=C/C3=[N+](CCCCCC)c4ccc5ccccc5c4C3(C)C)=C2Cl)C(C)(C)c2c1ccc1ccccc21 [IC7-1-He]", "Φ, quantum yield": 0.06}
{"COMPOUND": "CCN1/C(=C/C=C2\\CCCC(/C=C/C3=[N+](CC)c4ccc5ccccc5c4C3(C)C)=C2Cl)C(C)(C)c2c1ccc1ccccc21 [IC7-1-Et]", "Φ, quantum yield": 0.06}
{"COMPOUND": "CN1/C(=C/C=C2\\CCCC(/C=C/C3=[N+](C)c4ccc5ccccc5c4C3(C)C)=C2Cl)C(C)(C)c2c1ccc1ccccc21 [IC7-1-Me]", "Φ, quantum yield": 0.07}
{"COMPOUND": "CCCN1/C(=C/C=C2\\CCCC(/C=C/C3=[N+](CCC)c4ccc5ccccc5c4C3(C)C)=C2Cl)C(C)(C)c2c1ccc1ccccc21 [IC7-1-Pr]", "Φ, quantum yield": 0.07}
{"COMPOUND": "CCCCCN1/C(=C/C=C2\\CCCC(/C=C/C3=[N+](CCCCC)c4ccc5ccccc5c4C3(C)C)=C2Cl)C(C)(C)c2c1ccc1ccccc21 [IC7-1-Pe]", "Φ, quantum yield": 0.06}

Data provenance: paper PMC4303146
